# TEST_TARGET: Cyclophilin D (CypD) (Homo sapiens, UniProt P30405, K175I)
# Sequence (P30405 30-207 K175I limits assumed): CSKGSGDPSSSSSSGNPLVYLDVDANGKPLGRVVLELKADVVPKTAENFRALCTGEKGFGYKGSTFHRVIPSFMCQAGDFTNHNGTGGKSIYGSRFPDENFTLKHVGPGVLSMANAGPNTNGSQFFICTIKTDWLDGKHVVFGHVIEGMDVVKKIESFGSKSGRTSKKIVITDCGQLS
# PROCEDURE_DETAILS: Cyclophilin PPIase enzymatic assay (chymotrypsin coupled), CypD
# Format: biochemical
Mark satisfied for reported inhibition at 100 µM of 30% or greater; mark not satisfied for anything smaller.

Use these answered entries as a reference point.
>>> label_class("CCOC(=O)CNC(=O)NCC1CCNCC1")
"not satisfied"
>>> label_class("CCOC(=O)CNC(=O)NCc1cccc(N)c1 [Compound F549, ethyl 2-(3-(3-aminobenzyl)ureido)acetate]")
"not satisfied"
>>> label_class("CCOC(=O)CNC(=O)NCc1cccc(F)c1")
"not satisfied"
>>> label_class("CN(C(=O)CNC(=O)NCc1ccc(N)cc1)c1ccccc1")
"satisfied"

Now look at this one.
Entry CCOC(=O)CNC(=O)NCc1cccc(OC)c1 : is its inhibition at 100 µM no less than 30%?
not satisfied

Where these numbers come from: patent US8901295B2
